Test system: M19-MEL
Test: NCI tumour cell line growth inhibition, 48 h
Activity calls are given as the source filed them. Rule as the data show it: active = GI50 up to about 1.1 µM and inactive = higher.
Please respond with reported GI50 for every item in the list.

Examples from the recorded data:
CCn1cnnc1-c1nsc2ccccc12	> 100 µM (inactive)
Cc1ccc(NC(=O)C(=O)Cc2cc[n+]([O-])cc2)cc1	> 100 µM (inactive)
COc1cc(OC)c2c(=O)c3c([N+](=O)[O-])cccc3n(C)c2c1	> 100 µM (inactive)
CCOC(=O)Nc1ccc(S(=O)(=O)OC)cc1.CCOC(=O)Nc1ccc(S(=O)(=O)OC)cc1.Cc1cn(C2CC(O)C(CO)O2)c(=O)[nH]c1=O	49.8 µM (inactive)
O=C(O)CN(c1ccccc1)S(=O)(=O)c1ccccc1[N+](=O)[O-]	> 100 µM (inactive)

Now consider the entry below.
## Task Looking for the measured GI50 of "N#CCN1CCOCCOCCN(CC#N)CCOCCOCC1" , can you help?
## Result > 100 µM (inactive)
